# System: TK-10 renal
# MEASUREMENT_NOTES: NCI tumour cell line growth inhibition, 48 h
PROPERTY: TGI

• COC(=O)CN1Cc2cc(C)cc(c2O)CN(CC(=O)OC)Cc2cc(C)cc(c2O)CN(CC(=O)OC)Cc2cc(C)cc(c2O)C1 = > 100 µM
• CN(C)CCn1cnc2sc3ccccc3c21 = > 100 µM
• CC(=O)CC(=O)Nc1ccccc1[N+](=O)[O-] = > 100 µM
• COc1ccc2c(c1)OCCCN(C)OC2c1ccccc1 (stereo not given) = > 100 µM
• O=C(CSc1nnc(-c2ccccn2)s1)N/N=C/c1ccc([N+](=O)[O-])cc1 = 79 µM
• O=C1NC(=NCc2ccccc2Br)S/C1=C\c1ccc2ncccc2c1 = > 25 µM
• C#C[C@]1(O)CCC2C3CCc4cc(Oc5nc(F)nc(-n6c(C)nc7cc8ccccc8cc76)n5)ccc4C3CCC21C (stereo not given in full) = > 100 µM
• COC(=O)/C(=N/NC(N)=O)C(C(=O)C(=O)Nc1ccc(C)cc1)c1nc2ccc(C(=O)c3ccccc3)cc2[nH]c1=O (stereo not given) = > 100 µM
• COc1cc2c(/C=C3\C(=O)N(C)c4ccc(O)cc43)c[nH]c2cc1C = 32.6 µM
• O=S(=O)(O)c1cc(N=Nc2cccc3ccccc23)c(O)c2ncccc12 = > 100 µM

###

Quick reference: TGI of the listed items.
# Tested on: NCI-H460 lung
# MEASUREMENT_NOTES: NCI tumour cell line growth inhibition, 48 h
PROPERTY: TGI

- COc1ccc2c(c1)CCc1c(C(C)=O)c3ccccc3n1C2: > 100 µM
- COc1ccc2c(C)cc(C)nc2n1: > 100 µM
- CN(C)c1nc(N)nc(CCl)n1: > 100 µM
- NC(=O)C(N)CC12CC3CC(CC(C3)C1)C2 (stereo not drawn): > 100 µM
- CC1=C(C(=O)CC(=O)C(=O)Nc2cccc(C)c2C)Sc2ccccc2N1: > 100 µM
- CN1c2ccc(O)c(O)c2-c2cc(O)cc3c2C1CCC3 (stereo not drawn): > 59.5 µM
- O=C1NC(=NCc2ccccc2Br)S/C1=C\c1ccc2ncccc2c1: > 25 µM
- S=c1nc2sc3c(c2c(Nc2ccccc2)[nH]1)CCCC3: > 100 µM
- CCC(=O)c1c(C(F)(F)F)n([O-])c2cc(N3CCNCC3)c(F)cc2[n+]1=O: 11.5 µM
- CSC(SC)=C(C#N)C(=O)Nc1ccc(C)cc1: > 100 µM
- CC(C)C1(Cl)CCC2C3(C)CCCC(C)(C(=O)O)C3CC(Cl)C2(Cl)C1Cl (stereo not drawn): 75.2 µM
- Cc1ccc(S(=O)(=O)Nn2c(S)c(C#N)c(-c3ccc(N(C)C)cc3)c(C#N)c2=O)cc1: 39.3 µM
- COc1cc2c(/C=C3\C(=O)N(C)c4ccc(O)cc43)c[nH]c2cc1C: 7.79 µM
- COC1=CC(=O)[C@]2(C)[C@H](C1=O)C(C)[C@H]2c1ccc(OC)cc1 (stereo partly drawn): > 100 µM
- CC(=O)N1C(Nc2ccccc2)CCN1c1ccccc1 (stereo not drawn): > 10 µM
- CCOP(=O)(OCC)C1CC(C)OC1=O (stereo not drawn): > 100 µM
- COc1cc(-c2cc(/C=C3\C(=O)Nc4cc(Cl)ccc43)[nH]n2)cc(OC)c1OC: 4.9 µM
- O=C(/C=C/c1ccc(Cl)cc1)c1ccc(Cl)c(Cl)c1: > 100 µM
- CS(=O)(=O)CCN(CC#N)Cc1ccc(-c2ccc3ncnc(Nc4ccc(OCc5cccc(F)c5)c(Cl)c4)c3c2)o1: > 25 µM
- C=C1CCC(OC(C)=O)C2(C)C(OC(C)=O)CC3OC3(C)C2C(OC(C)=O)C2C(C)C(=O)OC2C1Cl (stereo not drawn): > 100 µM
- Nc1nc(Cl)nc(NCc2ccccc2)n1: > 100 µM
- CCN(CC)c1ccc(/C=N/NC(=O)c2ccc(S(C)(=O)=O)cc2)c(O)c1: 16 µM
- N#C/C(=C/NC(=S)NCc1ccccc1)C(N)=O: > 100 µM

###

Some compounds, each annotated with its measured TGI.
# Tested on: MDA-MB-231 breast
# MEASUREMENT_NOTES: NCI tumour cell line growth inhibition, 48 h
PROPERTY: TGI (µM)

• Clc1ccc(Nc2nnc(CNc3ccccc3)c3ccccc23)cc1 = 8.73
• CCCN1CCN(c2ccc3nc(-c4ccc5nc(-c6ccc(C(F)(F)F)cc6)[nH]c5c4)[nH]c3c2)CC1 = 3.52
• CC(=O)OC1CC(OC2C(O)CC(OC3C(O)CC(OC4CCC5(C)C(CCC6C5CCC5(C)C(C7=CC(=O)OC7)C(O)CC65O)C4)OC3C)OC2C)OC(C)C1OC1OC(CO)C(O)C(O)C1O (stereo not drawn) = 6.42
• COc1cc2c(/C=C3\C(=O)N(C)c4ccc(O)cc43)c[nH]c2cc1C = 44.5

###

Parameter TGI: see the listing below.
# Test system: ACHN renal
# MEASUREMENT_NOTES: NCI tumour cell line growth inhibition, 48 h
PROPERTY: TGI

• CCOP(=O)(OCC)C1CC(C)OC1=O (configuration not stated) = > 100 µM
• C=C1c2nc3ccccc3n2C=C(c2ccc(OC)cc2)N1c1ccccc1 = > 100 µM
• CC(=O)CC(=O)Nc1ccccc1[N+](=O)[O-] = > 100 µM
• Cc1ccc(NC(=O)/C=C/c2ccccc2)c(C)c1 = > 100 µM
• COc1cccc2c1C(=O)c1c(O)c3c(c(O)c1C2=O)C[C@@](O)(C(C)=O)C[C@@H]3O[C@H]1C[C@H](N)[C@H](O)[C@H](C)O1 = 0.395 µM
• Nc1cccc(CCN2CCN(CCCc3ccccc3)CC2)c1 = > 100 µM
• c1cc2ccc3cc4ncccc4c4ccc(c1)c2c34 = 31.6 µM
• COc1cc(C2CC(c3cccc(Nc4ccnc5cc(Cl)ccc45)c3)=NN2C=O)cc(OC)c1OC (configuration not stated) = 5.32 µM
• COc1cccc(/C(COc2ccc3c(c2)oc(=O)c2ccccc23)=N\O)c1 = > 100 µM
• O=C(CC(=O)N1N=C(N2c3ccccc3Sc3ccccc32)CC1c1ccccc1)Nc1ccccc1Cl (configuration not stated) = > 100 µM
• CC(=O)OCC1OC(n2c3c(cc(C#N)c2=O)CCCCCC3)C(OC(C)=O)C(OC(C)=O)C1OC(C)=O (configuration not stated) = > 100 µM
• CCOCc1cc(=O)c2cc3c(cc2o1)OC(C)(C)CC3 = > 100 µM
• Cc1cc2c(c3c1c1ccccc1n3C)C(=O)c1ccccc1C2=O = > 100 µM
• Cn1c(=O)c2ccccc2c2ccccc21 = > 100 µM
• CCCCCCCCCCCCCCCCCCOP1(=O)OCCO1 = > 100 µM
• O=C1/C(=C\c2ccc(Cl)cc2)CCOc2c1ccc1ccccc21 = 42.9 µM
• COc1ccc2c(c1)CCc1c(C(C)=O)c3ccccc3n1C2 = > 100 µM
• N=C1N(/N=C/c2ccccn2)C(=Nc2ccccc2)C(=S)N1c1ccccc1 = 7.96 µM
• COc1ccc(-c2c(C#N)c(=O)nc(SC)n2C2OCC(OC(C)=O)C(OC(C)=O)C2OC(C)=O)cc1 (configuration not stated) = > 100 µM
• Cc1cc(C)nc(Sc2c([N+](=O)[O-])ncn2C)n1 = > 100 µM
• O=C(Cc1nc(-c2ccccc2)cc(=O)n1-c1ccccc1Cl)c1ccncc1 = > 100 µM
• COc1ccc(C2C(C#N)=C(N)Oc3c2sc2c(F)cccc32)cc1 (configuration not stated) = 21.4 µM

###

Each entry below carries its recorded TGI.
# Tested on: HL-60(TB) leukemia
# MEASUREMENT_NOTES: NCI tumour cell line growth inhibition, 48 h
PROPERTY: TGI (µM)

• CC(C)c1cc2c(c(O)c1O)[C@@]1(C)CCCC(C)(C)C1=C(O)C2 = 3.27
• O=C(/C=C/c1ccc(Cl)cc1)c1ccc(Cl)c(Cl)c1 = 45.8
• CN1c2ccc(O)c(O)c2-c2cc(O)cc3c2C1CCC3 (stereo not given) = 39.2
• Cc1ncc(C(=O)Nc2ccc(CN3CCN(C)CC3)c(C(F)(F)F)c2)cc1C#Cc1c(N)ncc2ccc(F)cc12 = 2.06

###

# System: PC-3 prostate
# MEASUREMENT_NOTES: NCI tumour cell line growth inhibition, 48 h
Classify as follows. Reported TGI greater than or equal to 8 µM: Y. Reported TGI below: N.

• CC(C)NC(=O)OCc1c(COC(=O)NC(C)C)c(-c2ccc[n+](COC(=O)C(C)C)c2)n2c1CCC2 = Y
• Cc1ccc(NC(=O)c2cc(S(=O)(=O)Nc3n[nH]c(=O)n3-c3ccccc3)c(S)cc2Cl)cc1 = Y
• COc1cc2c(/C=C3\C(=O)N(C)c4ccc(O)cc43)c[nH]c2cc1C = Y
• CCN(CC)CCCNc1[nH]ncc2cc3c(nc4ccc(OC)cc43)c(C)c12 = Y
• O=c1oc2ccc(Br)cc2c(=O)n1-c1ccc(Br)cc1F = N
• Cc1cc(Nc2nc(-c3ccc(F)cc3)nc3ccccc23)n[nH]1 = Y
• COc1ccc(C2(O)C(S(=O)(=O)c3ccc(C)cc3)=Cc3ccc(OC)cc32)cc1 (stereo not given) = Y
• CC1CC(NN)=Nc2ccccc2N1 (stereo not given) = Y
• Cc1ncc(C(=O)Nc2ccc(CN3CCN(C)CC3)c(C(F)(F)F)c2)cc1C#Cc1c(N)ncc2ccc(F)cc12 = N

FYI, the data here is from PubChem BioAssay (NCI).
